# maps each entry to its pIC50
- EXPERIMENTAL_SYSTEM: human plasmin (Homo sapiens)
- Sequence (P00747 581-810 limits assumed): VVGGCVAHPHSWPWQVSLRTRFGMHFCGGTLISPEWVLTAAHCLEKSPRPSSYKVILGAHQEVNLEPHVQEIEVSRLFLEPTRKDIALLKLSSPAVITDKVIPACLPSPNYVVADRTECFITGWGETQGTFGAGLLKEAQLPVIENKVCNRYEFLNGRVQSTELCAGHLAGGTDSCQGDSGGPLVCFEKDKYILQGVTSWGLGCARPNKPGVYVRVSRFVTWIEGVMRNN
- Sequence (P00747 97-580 partner limits assumed): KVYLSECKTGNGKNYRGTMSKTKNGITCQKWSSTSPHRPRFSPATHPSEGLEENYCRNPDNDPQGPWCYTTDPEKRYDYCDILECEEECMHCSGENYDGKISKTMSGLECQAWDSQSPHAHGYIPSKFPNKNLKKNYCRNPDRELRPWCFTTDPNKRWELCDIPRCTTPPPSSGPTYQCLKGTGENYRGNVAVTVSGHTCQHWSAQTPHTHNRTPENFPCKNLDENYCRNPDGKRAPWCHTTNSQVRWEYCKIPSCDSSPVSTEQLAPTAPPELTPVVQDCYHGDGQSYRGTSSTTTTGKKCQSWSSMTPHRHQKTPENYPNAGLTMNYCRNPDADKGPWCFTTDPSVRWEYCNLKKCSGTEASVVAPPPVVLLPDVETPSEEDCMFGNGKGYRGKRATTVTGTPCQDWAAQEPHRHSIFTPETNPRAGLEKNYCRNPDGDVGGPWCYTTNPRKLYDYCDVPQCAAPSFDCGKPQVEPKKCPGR
- ASSAY_REMARKS: Antiplasmin activity: inhibition of fibrin decomposition
- Type: biochemical
- CONDITION_LABEL: Table 2; concentration at which fibrin dissolution time is extended twice, pH 7.4, 37° C.; read-out: Plasmin Fibrin (I50)
pIC50: −log10 of the molar value.
QUANTITY_NAME: pIC50

{"MOLECULE": "CC(=O)c1ccc(NC(=O)C(Cc2ccc(Oc3cc(Cl)ccc3[N+](=O)[O-])cc2)NC(=O)C2CCC(CN)CC2)cc1 (centres unmarked)", "EXPERIMENTAL_SYSTEM": "human plasmin (Homo sapiens)", "RESULT_VALUE": 6.55}
{"MOLECULE": "Cc1ccc(NC(=O)[C@H](Cc2ccc(OCc3ccccc3)cc2)NC(=O)c2ccc(CN)cc2)cc1C", "EXPERIMENTAL_SYSTEM": "human plasmin (Homo sapiens)", "RESULT_VALUE": 6.00}
{"MOLECULE": "NCc1ccc(C(=O)N[C@@H](Cc2ccc(OCc3ccccc3)cc2)C(=O)N2CCN(C(=O)c3ccccc3)CC2)cc1", "EXPERIMENTAL_SYSTEM": "human plasmin (Homo sapiens)", "RESULT_VALUE": 3.68}
{"MOLECULE": "NC[C@H]1CC[C@H](C(=O)N[C@@H](Cc2ccc(OCc3ccccc3)cc2)C(=O)N2CCC(C(=O)c3ccccc3)CC2)CC1", "EXPERIMENTAL_SYSTEM": "human plasmin (Homo sapiens)", "RESULT_VALUE": 5.47}
{"MOLECULE": "CC(=O)c1ccc(NC(=O)[C@H](Cc2ccc(OC(=O)OCc3ccccc3)cc2)NC(=O)[C@H]2CC[C@H](CN)CC2)cc1", "EXPERIMENTAL_SYSTEM": "human plasmin (Homo sapiens)", "RESULT_VALUE": 6.54}
{"MOLECULE": "NC[C@H]1CC[C@H](C(=O)N[C@@H](Cc2ccccc2)C(=O)Nc2ccc(C(=O)c3ccccc3)cc2)CC1", "EXPERIMENTAL_SYSTEM": "human plasmin (Homo sapiens)", "RESULT_VALUE": 4.40}
{"MOLECULE": "NC[C@H]1CC[C@H](C(=O)N[C@@H](Cc2ccc(OCc3ccccc3)cc2)C(=O)Nc2cccc([N+](=O)[O-])c2)CC1", "EXPERIMENTAL_SYSTEM": "human plasmin (Homo sapiens)", "RESULT_VALUE": 6.02}
{"MOLECULE": "CC1CCC(NC(=O)[C@H](Cc2ccc(OCc3ccccc3)cc2)NC(=O)c2ccc(CN)cc2)CC1 (some centres unmarked)", "EXPERIMENTAL_SYSTEM": "human plasmin (Homo sapiens)", "RESULT_VALUE": 6.39}
{"MOLECULE": "NC[C@H]1CC[C@H](C(=O)N[C@@H](Cc2ccc(OCc3ccc(Cl)c(Cl)c3)cc2)C(=O)Nc2ccncc2)CC1", "EXPERIMENTAL_SYSTEM": "human plasmin (Homo sapiens)", "RESULT_VALUE": 6.54}
{"MOLECULE": "CC(=O)c1ccc(NC(=O)[C@H](Cc2ccc(OCc3c(Cl)cccc3Cl)cc2)NC(=O)[C@H]2CC[C@H](CN)CC2)cc1", "EXPERIMENTAL_SYSTEM": "human plasmin (Homo sapiens)", "RESULT_VALUE": 6.51}
{"MOLECULE": "CC1CCCC(NC(=O)[C@H](Cc2ccc(OCc3ccccc3)cc2)NC(=O)c2ccc(CN)cc2)C1C (some centres unmarked)", "EXPERIMENTAL_SYSTEM": "human plasmin (Homo sapiens)", "RESULT_VALUE": 5.54}
